test system: LAN-6; assay: cells; format: functional, cell-based, Homo sapiens; settings: Homo sapiens, LAN-6;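 further: growth inhibition of LAN-6 cells, determined with a cell viability assay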
Description: SANGER: Inhibition of human LAN-6 cell growth in a cell viability assay.
pIC50: −log10 of the molar value.
Provide the recorded pIC50 for the entries that follow.

Form: molecule = CCc1nc(N)nc(N)c1-c1ccc(Cl)cc1 ; pIC50 = < 4.70

Form: molecule = COC(=O)CNC(=O)C(=O)OC ; pIC50 = 2.68

Form: molecule = CC(=O)O[C@@]12CO[C@@H]1C[C@H](O)[C@@]1(C)C(=O)[C@H](O)C3=C(C)[C@@H](OC(=O)[C@H](O)[C@@H](NC(=O)OC(C)(C)C)c4ccccc4)C[C@@](O)([C@@H](OC(=O)c4ccccc4)[C@H]21)C3(C)C ; pIC50 = < 8.00

----------
test system: AN3-CA; assay: cells; format: functional, cell-based; details: Homo sapiens;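 further: growth inhibition of human AN3-CA cells measured by a cell viability assay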
Description: SANGER: Inhibition of human AN3-CA cell growth in a cell viability assay.
pIC50: −log10 of the molar value.
OBSERVABLE: pIC50

Form: molecule = COc1cc(F)c(F)c(Nc2ccc(I)cc2F)c1NS(=O)(=O)C1(CC(O)CO)CC1 (centres undefined) ; pIC50 = < 5.30

Form: molecule = C=CCc1cccc(/C=N/NC(=O)CN2CCN(Cc3ccccc3)CC2)c1O [PAC-1] ; pIC50 = < 5.59

Form: molecule = CN(C)C/C=C/C(=O)Nc1cc2c(Nc3ccc(F)c(Cl)c3)ncnc2cc1O[C@H]1CCOC1 [AFATINIB] ; pIC50 = < 6.30

Form: molecule = Cn1cc(C2=C(c3ccc(Cl)cc3Cl)C(=O)NC2=O)c2ccccc21 [SB-216763] ; pIC50 = < 5.00

----------
system: KYSE-150 cell line; assay: cells; type: functional, cell-based, Homo sapiens; conditions: Homo sapiens, KYSE-150;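 further: growth inhibition of human KYSE-150 cells, read out with a cell viability assay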
Description: SANGER: Inhibition of human KYSE-150 cell growth in a cell viability assay.
Provide the recorded IC50 for the entries that follow.

Short answer on KYSE-150 cell line for CC(=O)O[C@@H]1[C@@H](OC(C)=O)[C@@H](O)[C@H](Oc2c(-c3ccc(O)cc3)oc3cc(O)cc(O)c3c2=O)O[C@H]1C , IC50: > 10 µM

Short answer on KYSE-150 cell line for Cn1cc(C2=C(c3ccc(Cl)cc3Cl)C(=O)NC2=O)c2ccccc21 [SB-216763] , IC50: > 10 µM

Short answer on KYSE-150 cell line for CCOc1nc(NC(=O)Cc2cc(OC)ccc2OC)cc(N)c1C#N , IC50: > 10 µM

----------
test system: RCM-1; experiment: cells; format: functional, cell-based, Homo sapiens; conditions: Homo sapiens, RCM-1;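 further: growth inhibition of the RCM-1 line, determined with a cell viability readout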
Description: SANGER: Inhibition of human RCM-1 cell growth in a cell viability assay.
pIC50: −log10 of the molar value.
Provide the recorded pIC50 for the entries that follow.

Short answer on RCM-1 for CC(=O)O[C@@]12CO[C@@H]1C[C@H](O)[C@@]1(C)C(=O)[C@H](O)C3=C(C)[C@@H](OC(=O)[C@H](O)[C@@H](NC(=O)OC(C)(C)C)c4ccccc4)C[C@@](O)([C@@H](OC(=O)c4ccccc4)[C@H]21)C3(C)C [DOCETAXEL] , pIC50: < 8.00

Short answer on RCM-1 for O=C(NOCC1CC1)c1ccc(F)c(F)c1Nc1ccc(I)cc1Cl [CI-1040] , pIC50: 5.91

Short answer on RCM-1 for O=C(c1cc(Cc2n[nH]c(=O)c3ccccc23)ccc1F)N1CCN(C(=O)C2CC2)CC1 [OLAPARIB] , pIC50: < 5.30

Short answer on RCM-1 for CCC1=C[C@@H]2CN(C1)Cc1c([nH]c3ccccc13)[C@@](C(=O)OC)(c1cc3c(cc1OC)N(C)[C@H]1[C@@](O)(C(=O)OC)[C@H](OC(C)=O)[C@]4(CC)C=CCN5CC[C@]31[C@@H]54)C2 [VINORELBINE] , pIC50: < 7.19

Short answer on RCM-1 for Cc1cnc(-c2cnc(NCCNc3ccc(C#N)cn3)nc2-c2ccc(Cl)cc2Cl)[nH]1 [LADUVIGLUSIB] , pIC50: < 5.59

----------
test system: LS-411N; assay: cells; format: functional, cell-based, Homo sapiens; details: Homo sapiens, LS-411N
Provide the recorded IC50 for the entries that follow.

Form: compound = CS(=O)(=O)CCNCc1ccc(-c2ccc3ncnc(Nc4ccc(OCc5cccc(F)c5)c(Cl)c4)c3c2)o1 ; IC50 = > 2 µM

Form: compound = Cc1cc([C@@H](C)Nc2ccccc2C(=O)O)c2nc(N3CCOCC3)cc(=O)n2c1 ; IC50 = > 5.12 µM

Form: compound = Cn1cc(C2=C(c3ccc(Cl)cc3Cl)C(=O)NC2=O)c2ccccc21 ; IC50 = > 10 µM

----------
Provide the recorded IC50 for the entries that follow.
system: NB13; test: cells; format: functional, cell-based, Homo sapiens; conditions: Homo sapiens, NB13;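 further: cell viability readout measuring growth inhibition of human NB13 cells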
Description: SANGER: Inhibition of human NB13 cell growth in a cell viability assay.

Form: compound = Cc1ccc(Nc2nccc(N(C)c3ccc4c(C)n(C)nc4c3)n2)cc1S(N)(=O)=O ; IC50 = > 8000 nM

Form: compound = CN(c1ncccc1CNc1nc(Nc2ccc3c(c2)CC(=O)N3)ncc1C(F)(F)F)S(C)(=O)=O ; IC50 = > 2560 nM

Form: compound = CN(C)C/C=C/C(=O)Nc1cc2c(Nc3ccc(F)c(Cl)c3)ncnc2cc1O[C@H]1CCOC1 ; IC50 = > 500 nM

----------
tested on: NCI-H1437; experiment: cells; type: functional, cell-based, Homo sapiens; details: Homo sapiens, NCI-H1437;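 further: growth inhibition of human NCI-H1437 cells, read out by a cell viability assay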
Description: SANGER: Inhibition of human NCI-H1437 cell growth in a cell viability assay.
OBSERVABLE: IC50

Form: compound = O=C1N=C(NCc2cccs2)S/C1=C\c1ccc2ncccc2c1 ; IC50 = > 5 µM

Form: compound = CC(=O)O[C@@H]1[C@@H](OC(C)=O)[C@@H](O)[C@H](Oc2c(-c3ccc(O)cc3)oc3cc(O)cc(O)c3c2=O)O[C@H]1C ; IC50 = > 10 µM

Form: compound = CN(C)C/C=C/C(=O)Nc1cc2c(Nc3ccc(F)c(Cl)c3)ncnc2cc1O[C@H]1CCOC1 [AFATINIB] ; IC50 = > 0.5 µM

Form: compound = CCOc1nc(NC(=O)Cc2cc(OC)ccc2OC)cc(N)c1C#N ; IC50 = > 10 µM

----------
system: LCLC-97TM1; assay: cells; type: functional, cell-based, Homo sapiens; details: Homo sapiens, LCLC-97TM1;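 further: cell viability assay measuring growth inhibition of human LCLC-97TM1 cells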
Description: SANGER: Inhibition of human LCLC-97TM1 cell growth in a cell viability assay.
pIC50: −log10 of the molar value.
OBSERVABLE: pIC50

Form: molecule = Cc1cc([C@@H](C)Nc2ccccc2C(=O)O)c2nc(N3CCOCC3)cc(=O)n2c1 ; pIC50 = < 5.29

Form: molecule = CCOc1nc(NC(=O)Cc2cc(OC)ccc2OC)cc(N)c1C#N ; pIC50 = < 5.00

Form: molecule = CN(Cc1cnc2nc(N)nc(N)c2n1)c1ccc(C(=O)N[C@@H](CCC(=O)O)C(=O)O)cc1 [METHOTREXATE] ; pIC50 = < 6.70

----------
test system: HCC1187; assay: cells; type: functional, cell-based, Homo sapiens; details: Homo sapiens, HCC1187
Description: SANGER: Inhibition of human HCC1187 cell growth in a cell viability assay.
Provide the recorded IC50 for the entries that follow.

Form: compound = Cn1cncc1[C@@](N)(c1ccc(Cl)cc1)c1ccc2c(c1)c(-c1cccc(Cl)c1)cc(=O)n2C ; IC50 = 7.61 µM

Form: compound = Cc1cc([C@@H](C)Nc2ccccc2C(=O)O)c2nc(N3CCOCC3)cc(=O)n2c1 ; IC50 = > 5.12 µM

Form: compound = C[C@]1(O)C[C@@H](c2nc(-c3ccc4ccc(-c5ccccc5)nc4c3)c3c(N)nccn32)C1 ; IC50 = > 2.56 µM

----------
system: TE-15; assay: cells; type: functional, cell-based; settings: Homo sapiens;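 further: cell viability readout of growth inhibition in TE-15 cells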
Description: SANGER: Inhibition of human TE-15 cell growth in a cell viability assay.
Provide the recorded IC50 for the entries that follow.
Value expressed in nM; do not type the unit.

Form: compound = Cc1cc(Nc2cc(N3CCN(C)CC3)nc(Sc3ccc(NC(=O)C4CC4)cc3)n2)n[nH]1 ; IC50 = 851

Form: compound = COc1cc([C@@H]2c3cc4c(cc3[C@@H](O[C@@H]3O[C@@H]5CO[C@@H](C)O[C@H]5[C@H](O)[C@H]3O)[C@H]3COC(=O)[C@H]23)OCO4)cc(OC)c1O [ETOPOSIDE] ; IC50 = 960

Form: compound = Cc1ccc(Nc2nccc(N(C)c3ccc4c(C)n(C)nc4c3)n2)cc1S(N)(=O)=O ; IC50 = 7170

Form: compound = CO[C@H]1C[C@@H]2CC[C@@H](C)[C@@](O)(O2)C(=O)C(=O)N2CCCC[C@H]2C(=O)O[C@H]([C@H](C)C[C@@H]2CC[C@@H](O)[C@H](OC)C2)CC(=O)[C@H](C)/C=C(\C)[C@@H](O)[C@@H](OC)C(=O)[C@H](C)C[C@H](C)/C=C/C=C/C=C/1C ; IC50 = 1.36

----------
Provide the recorded IC50 for the entries that follow.
system: CAMA-1; assay: cells; format: functional, cell-based, Homo sapiens; details: Homo sapiens, CAMA-1
Description: SANGER: Inhibition of human CAMA-1 cell growth in a cell viability assay.

Form: molecule = CCOc1nc(NC(=O)Cc2cc(OC)ccc2OC)cc(N)c1C#N ; IC50 = > 10 µM

Form: molecule = COC(=O)CNC(=O)C(=O)OC ; IC50 = > 4000 µM

Form: molecule = C[C@]1(O)C[C@@H](c2nc(-c3ccc4ccc(-c5ccccc5)nc4c3)c3c(N)nccn32)C1 ; IC50 = > 2.56 µM
